- ASSAYED SYSTEM: HLA-B*27:05
- PROCEDURE DETAILS: IEDB peptide-MHC binding, purified MHC/direct/fluorescence; filed as Kd, often an IC50 or EC50 that approximates it; bounds were set here for any values at or beyond the usual limits of such assays
- CONDITION CONTEXT: source organism: Influenza A virus (A/equine/Massachussetts/213/2003(H3N8))
QUANTITY NAME: Kd

Lookup: Enter reported Kd observed with HLA-B*27:05 for ILKGKFQTA
Found: ≥ 20 µM

---

- ASSAYED SYSTEM: HLA-A*30:01
- PROCEDURE DETAILS: IEDB peptide-MHC binding, purified MHC/competitive/radioactivity; filed as Kd, often an IC50 or EC50 that approximates it; bounds were set here for any values at or beyond the usual limits of such assays
- CONDITION CONTEXT: source organism: Dengue virus 3 Martinique/1243/1999
QUANTITY NAME: Kd (µM)
Give just the numeric value; µM need not be written.

Lookup: For RTRNALDNL , what is its reported Kd?
Found: 0.00333

Lookup: How about this sequence: QYIFTGQPLN
Found: 8.84

---

- ASSAYED SYSTEM: HLA-B*58:01
- PROCEDURE DETAILS: IEDB peptide-MHC binding, purified MHC/direct/fluorescence; filed as Kd, often an IC50 or EC50 that approximates it; bounds were set here for any values at or beyond the usual limits of such assays
- CONDITION CONTEXT: source organism: Burkholderia mallei
pKd: −log10 of the molar value.
QUANTITY NAME: pKd

Lookup: Item EARGKEKLL with HLA-B*58:01 - pKd?
Found: ≤ 4.70

---

- ASSAYED SYSTEM: HLA-B*18:01
- PROCEDURE DETAILS: IEDB peptide-MHC binding, purified MHC/direct/fluorescence; filed as Kd, often an IC50 or EC50 that approximates it; bounds were set here for any values at or beyond the usual limits of such assays
- CONDITION CONTEXT: source organism: Encephalitozoon cuniculi GB-M1
pKd: −log10 of the molar value.
QUANTITY NAME: pKd

Lookup: // returns reported pKd for input FSFFMNENF
Found: ≤ 4.70

---

- ASSAYED SYSTEM: HLA-A*02:02
- PROCEDURE DETAILS: IEDB peptide-MHC binding, purified MHC/competitive/radioactivity; filed as Kd, often an IC50 or EC50 that approximates it; bounds were set here for any values at or beyond the usual limits of such assays
- CONDITION CONTEXT: source organism: Vaccinia virus WR
Please go through the items and note down their Kd.
Return type: number; implicit unit µM.

Lookup: Reported Kd for VILKDPRIA : what is it?
Found: 10.6

Lookup: What about this sequence? KASTISWMM
Found: 0.429

Lookup: Now the sequence HLMSDNPKA
Found: 0.0569

Lookup: Param item: PLPCQLMYAL
Found: 0.163

Lookup: Now the same for YVIPDELIDV
Found: 0.0181

Lookup: And FVDTMSIYIA ?
Found: 0.154

Lookup: Proceed to ATICLKNEGV
Found: 0.436

Lookup: Entry to check: NVSRVVECL
Found: 0.133

Lookup: Another sequence to check: ELKDLLNVT
Found: 1.54

Lookup: Can you handle RVTKRDESSI next?
Found: 12.3

Lookup: Okay, and DLDKVYEIL ?
Found: 19.6

Lookup: Now the sequence PISDYSAEV
Found: 0.716

Lookup: Another sequence to check: FIQWTGGNI
Found: 0.683

Lookup: Same thing, different sequence: RVTTELNIV
Found: 2.46

Lookup: Now consider FIISTLNKI .
Found: 0.00165

Lookup: How about this sequence: SLGKSPLPSL
Found: 0.00407

Lookup: SVGTGILFM , same question.
Found: 1.09

Lookup: Try this sequence next: YIAGLKIEEI
Found: 0.00892

Lookup: Repeat for the following sequence: IIAVFDSKL
Found: 0.044

Lookup: For KTIISEEYL then?
Found: 0.916

Lookup: Input RIEDMFLTSV
Found: 0.548

Lookup: Same for PTEMVDVSM
Found: 10.6

Lookup: What would you report for EIKAEMQLKI ?
Found: 16.9

Lookup: Please answer likewise for MICCDSRIVV
Found: 0.665

Lookup: Now this one: NACDKHNKT
Found: 17.9

Lookup: Try this sequence next: QTLISLNSM
Found: 19.4

Lookup: Quick one: LVQYRILPM
Found: 14.8

Lookup: And the next one, ETMYLTMKA ?
Found: 7.85

Lookup: Entry to check: VTLFIDRGSI
Found: 3.83

Lookup: # iterate: FAFIDFSKST
Found: 11.8

Lookup: # iterate: SMYVIPDELI
Found: 0.0307

Lookup: Would you mind doing SIRCVKYLL as well?
Found: 0.107

Lookup: Entry TLVKSGLTEV please
Found: 0.0641

Lookup: Same lookup for LLLENKSLTI , please.
Found: 0.982

Lookup: Also AVIIMAINV , if possible.
Found: 9.07

Lookup: // query: ILDNLRCHSA
Found: 0.972

Lookup: Same read-out for FTEGKINPLL ?
Found: 0.15

Lookup: For MIYDLNAVTT then?
Found: 0.897

Lookup: Likewise for YTKHSMLTNA ?
Found: 3.9

Lookup: Subsequent entry: STIANSNII
Found: 6.12
